# Experimental protocol: in vivo
# Assay setup: mouse, iv
Structures can show the parent of a compound that is named as a salt.
Endpoint label: LD50 (mg/kg)
Give bare numbers, in mg/kg.

Quickly give me recorded LD50 for NC12CCCC3CC(CCC31)C2 (stereo not shown) [Compound A, 3-Amino-4-homoisotwistane hydrochloride]
32

====

# Experimental protocol: in vivo
# Assay setup: mouse, po
Counter-ions that a name gives are not always drawn.
Endpoint label: LD50 (mg/kg)
Give bare numbers, in mg/kg.

Return LD50 (reported value) for this compound: NC12CCCC3CC(CCC31)C2 (stereo not shown) [Compound A, 3-Amino-4-homoisotwistane hydrochloride]
300

Data provenance: patent US4174407A
